# method-notes: in vivo
# test-conditions: mouse, ip
measurement-label: LD50

Data point: O=C(O)[C@H]1/C(=C/CNCc2ccccc2)O[C@@H]2CC(=O)N21 [Example 2, 9-N-Benzylaminodeoxyclavulanic acid] ; LD50 = > 1000 mg/kg

From: patent US4359473A
